- TARGET_OR_TEST_SYSTEM: human recombinant TPK1 (Homo sapiens)
- Sequence (P49841 whole entry): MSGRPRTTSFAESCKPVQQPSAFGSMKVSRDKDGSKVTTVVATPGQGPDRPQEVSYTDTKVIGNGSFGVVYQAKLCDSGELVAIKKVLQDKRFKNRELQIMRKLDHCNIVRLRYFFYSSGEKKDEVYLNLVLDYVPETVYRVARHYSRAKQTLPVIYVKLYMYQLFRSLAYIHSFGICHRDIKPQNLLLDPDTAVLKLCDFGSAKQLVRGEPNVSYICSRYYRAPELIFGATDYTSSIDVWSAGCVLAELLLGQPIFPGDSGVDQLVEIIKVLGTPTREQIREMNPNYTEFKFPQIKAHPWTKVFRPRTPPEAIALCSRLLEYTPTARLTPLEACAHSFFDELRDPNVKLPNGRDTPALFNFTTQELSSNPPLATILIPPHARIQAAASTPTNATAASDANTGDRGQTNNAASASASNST
- ASSAY_NAME: Inhibitory activity against P-GS1 phosphorylation by TPK1 (Kinase Glo luminescence)
- PROTOCOL_CONDITIONS: 7.5 μM P-GS1, 10 μM ATP, 25° C. for 16 hours, Kinase Glo Reagent luminescent signal
pIC50: −log10 of the molar value.
ASSAY_READOUT: pIC50

Use these answered entries as a reference point.
>>> observed("Cn1c(N2CCCO[C@H](c3ccc(C(N)=O)cc3)C2)nc(-c2ccncc2F)cc1=O")
7.51
>>> observed("Cc1noc(-c2ccc([C@@H]3CN(c4nc(-c5ccncc5F)cc(=O)n4C)CCCO3)cc2)n1")
7.00
>>> observed("Cn1c(N2CCCO[C@@H](c3ccc(C#N)cc3)C2)nc(-c2ccncn2)cc1=O")
7.75
>>> observed("Cn1c(N2CCCOCC2)nc(-c2ccncn2)cc1=O")
6.63
>>> observed("C[C@@H]1COCCCN1c1nc(-c2ccncn2)cc(=O)n1C")
7.63

(A) Cc1nc(-c2ccc(C3COCCN(c4nc(-c5ccncn5)cc(=O)n4C)C3)cc2)no1 (centres unmarked)
(B) Cn1c(N2CCOC(c3ccc(F)cc3)CC2)nc(-c2ccncc2)cc1=O (centres unmarked)
(C) Cc1nc(-c2ccc(C3COCCN(c4nc(-c5ccncc5F)cc(=O)n4C)C3)cc2)no1 (centres unmarked)
Prompt: Order the items by recorded pIC50; the first position goes to the largest value. Respond with the label ranking, as requested.
Completion: C, A, B
(C: 7.85, A: 7.45, B: 6.82)

Data credit: patent US9108957B2
